Reported Glucocort. RBA values are given for each entry in this list.
# TARGET UNDER TEST: glucocorticoid receptor (Rattus norvegicus, UniProt P06536)
# Construct: glucocorticoid receptor from thymus of adrenalectomized rats; from tissue; host or cells: thymus of adrenalectomized rats
# Sequence (P06536 1-795): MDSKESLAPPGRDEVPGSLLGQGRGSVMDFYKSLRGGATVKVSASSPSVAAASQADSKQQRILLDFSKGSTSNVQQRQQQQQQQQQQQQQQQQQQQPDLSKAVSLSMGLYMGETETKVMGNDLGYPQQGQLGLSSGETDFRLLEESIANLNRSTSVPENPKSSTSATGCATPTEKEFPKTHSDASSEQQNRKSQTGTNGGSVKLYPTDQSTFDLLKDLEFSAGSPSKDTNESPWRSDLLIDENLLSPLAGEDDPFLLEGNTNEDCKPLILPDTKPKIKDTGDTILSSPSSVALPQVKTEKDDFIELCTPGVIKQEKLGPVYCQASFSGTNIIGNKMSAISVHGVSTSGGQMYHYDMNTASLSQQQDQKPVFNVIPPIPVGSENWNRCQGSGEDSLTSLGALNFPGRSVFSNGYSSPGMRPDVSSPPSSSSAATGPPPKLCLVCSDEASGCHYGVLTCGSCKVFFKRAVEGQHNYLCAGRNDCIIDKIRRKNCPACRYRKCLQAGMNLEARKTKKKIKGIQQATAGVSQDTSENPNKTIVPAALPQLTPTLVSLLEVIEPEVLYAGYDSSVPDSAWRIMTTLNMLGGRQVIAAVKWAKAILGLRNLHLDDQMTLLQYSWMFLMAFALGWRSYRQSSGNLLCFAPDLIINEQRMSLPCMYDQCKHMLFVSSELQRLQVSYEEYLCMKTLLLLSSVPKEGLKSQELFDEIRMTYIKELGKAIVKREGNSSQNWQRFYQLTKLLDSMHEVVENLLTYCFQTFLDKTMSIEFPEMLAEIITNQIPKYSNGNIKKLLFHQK
# METHOD SUMMARY: Relative binding affinity to glucocorticoid receptor of thymus (displacement of tritium-labeled dexamethasone)
# Set-up: species or system rat (adrenalectomized)
# STATED CONDITIONS: relative to dexamethasone (=100)
The answer should be written as a number, with no unit following it.

Solved entries:
1. CC(=O)O[C@]1(C(C)=O)CC[C@H]2[C@@H]3CCC4=CC(=O)CCC4=C3[C@@H](c3ccc(N(C)C)cc3)C[C@@]21C [Compound 8a]: 198
2. CC[C@@H]1C[C@H]2[C@@H]3C[C@H](C)C4=CC(=O)CCC4=C3[C@@H](c3ccc(N(C)C)cc3)C[C@]2(C)[C@H]1C(C)=O [Compound 15a]: 246

Prompt line: Would you mind telling me what Glucocort. RBA value was observed for CC(=O)[C@@]1(O)CC[C@H]2[C@@H]3CCC4=CC(=O)CCC4=C3[C@@H](c3ccc(N(C)C)cc3)C[C@@]21C [OH, H, H] ?
Response line: 41
